- target: human NaV 1.7 (Homo sapiens, UniProt Q15858)
- Sequence (Q15858 whole entry): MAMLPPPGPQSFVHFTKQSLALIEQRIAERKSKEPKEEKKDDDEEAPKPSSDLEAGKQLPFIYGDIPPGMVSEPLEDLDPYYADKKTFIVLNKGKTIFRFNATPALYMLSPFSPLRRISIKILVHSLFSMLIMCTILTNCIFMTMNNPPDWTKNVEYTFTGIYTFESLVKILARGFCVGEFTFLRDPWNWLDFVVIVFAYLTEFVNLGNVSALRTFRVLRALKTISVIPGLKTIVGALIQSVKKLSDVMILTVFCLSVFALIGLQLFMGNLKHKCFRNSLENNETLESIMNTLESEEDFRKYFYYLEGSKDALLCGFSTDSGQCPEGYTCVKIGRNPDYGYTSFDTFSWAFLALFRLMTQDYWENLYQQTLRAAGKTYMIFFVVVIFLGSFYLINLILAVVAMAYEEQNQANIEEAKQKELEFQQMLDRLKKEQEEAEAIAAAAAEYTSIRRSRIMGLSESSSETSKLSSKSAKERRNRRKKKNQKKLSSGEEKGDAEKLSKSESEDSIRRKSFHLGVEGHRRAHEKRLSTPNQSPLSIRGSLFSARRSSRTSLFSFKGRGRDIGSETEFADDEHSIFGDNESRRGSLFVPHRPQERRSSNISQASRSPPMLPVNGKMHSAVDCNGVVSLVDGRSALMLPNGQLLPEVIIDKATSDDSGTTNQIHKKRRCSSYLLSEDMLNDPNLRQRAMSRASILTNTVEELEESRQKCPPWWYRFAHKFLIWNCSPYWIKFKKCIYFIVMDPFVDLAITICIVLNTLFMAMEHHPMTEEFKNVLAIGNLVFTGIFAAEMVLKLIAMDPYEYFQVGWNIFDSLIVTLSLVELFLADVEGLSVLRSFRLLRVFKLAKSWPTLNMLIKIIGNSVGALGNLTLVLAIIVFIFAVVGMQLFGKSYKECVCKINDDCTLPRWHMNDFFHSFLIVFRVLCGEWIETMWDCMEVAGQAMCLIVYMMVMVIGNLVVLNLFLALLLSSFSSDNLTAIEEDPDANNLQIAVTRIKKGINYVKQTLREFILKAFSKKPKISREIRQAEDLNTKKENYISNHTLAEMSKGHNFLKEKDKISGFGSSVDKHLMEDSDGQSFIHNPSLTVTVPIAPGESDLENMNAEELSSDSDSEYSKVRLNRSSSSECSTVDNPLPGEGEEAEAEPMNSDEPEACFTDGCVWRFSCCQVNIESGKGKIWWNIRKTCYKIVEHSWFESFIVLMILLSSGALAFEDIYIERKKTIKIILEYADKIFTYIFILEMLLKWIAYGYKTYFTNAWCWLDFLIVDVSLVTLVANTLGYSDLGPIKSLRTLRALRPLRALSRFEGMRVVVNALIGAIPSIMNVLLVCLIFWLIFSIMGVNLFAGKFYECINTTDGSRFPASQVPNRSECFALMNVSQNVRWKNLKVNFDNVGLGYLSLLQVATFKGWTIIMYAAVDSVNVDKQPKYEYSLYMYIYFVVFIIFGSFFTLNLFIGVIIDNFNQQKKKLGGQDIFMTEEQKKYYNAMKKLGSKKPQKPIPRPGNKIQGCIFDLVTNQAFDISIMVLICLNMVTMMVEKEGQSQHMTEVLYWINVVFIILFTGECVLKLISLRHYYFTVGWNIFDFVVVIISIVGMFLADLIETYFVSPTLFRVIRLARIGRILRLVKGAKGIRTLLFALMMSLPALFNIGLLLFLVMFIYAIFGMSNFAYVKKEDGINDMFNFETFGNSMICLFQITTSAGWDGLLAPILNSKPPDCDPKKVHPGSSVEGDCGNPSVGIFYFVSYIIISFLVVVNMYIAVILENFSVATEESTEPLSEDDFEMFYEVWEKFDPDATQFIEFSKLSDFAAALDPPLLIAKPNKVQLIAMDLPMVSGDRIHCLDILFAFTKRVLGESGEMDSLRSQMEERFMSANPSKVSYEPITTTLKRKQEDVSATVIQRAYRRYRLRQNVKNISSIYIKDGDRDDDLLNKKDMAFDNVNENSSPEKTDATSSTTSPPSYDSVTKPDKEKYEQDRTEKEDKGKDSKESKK
- procedure-details: E-VIPR optical membrane potential assay with electrical stimulation
- test-parameters: sodium channel inhibition; read-out: Binned Activity Data (IC50)
pIC50: −log10 of the molar value.
pIC50 values by entry

smiles-representation | pIC50
Cn1cc2c(n1)-c1ccccc1OC21CCN(C(=O)c2ccccc2OC(F)F)CC1 | ≥ 5.70
CC(C)(O)Cc1ccc(C(=O)N2CCC3(CC2)Oc2ccccc2-n2c(C#N)ccc23)cc1 | ≥ 5.70
COc1cc(C(=O)N2CCC3(CC2)Oc2ccccc2-c2[nH]ncc23)ccc1OC(C)(C)C | 5.30 to 5.70
COc1cc(C(=O)N2CCC3(CC2)Oc2ccccc2-n2cccc23)ccc1OCC(N)=O | ≥ 5.70
